- target_under_test: Bifunctional 3'-5' exonuclease/ATP-dependent helicase WRN (Homo sapiens, UniProt Q14191)
- Sequence (Q14191 whole entry): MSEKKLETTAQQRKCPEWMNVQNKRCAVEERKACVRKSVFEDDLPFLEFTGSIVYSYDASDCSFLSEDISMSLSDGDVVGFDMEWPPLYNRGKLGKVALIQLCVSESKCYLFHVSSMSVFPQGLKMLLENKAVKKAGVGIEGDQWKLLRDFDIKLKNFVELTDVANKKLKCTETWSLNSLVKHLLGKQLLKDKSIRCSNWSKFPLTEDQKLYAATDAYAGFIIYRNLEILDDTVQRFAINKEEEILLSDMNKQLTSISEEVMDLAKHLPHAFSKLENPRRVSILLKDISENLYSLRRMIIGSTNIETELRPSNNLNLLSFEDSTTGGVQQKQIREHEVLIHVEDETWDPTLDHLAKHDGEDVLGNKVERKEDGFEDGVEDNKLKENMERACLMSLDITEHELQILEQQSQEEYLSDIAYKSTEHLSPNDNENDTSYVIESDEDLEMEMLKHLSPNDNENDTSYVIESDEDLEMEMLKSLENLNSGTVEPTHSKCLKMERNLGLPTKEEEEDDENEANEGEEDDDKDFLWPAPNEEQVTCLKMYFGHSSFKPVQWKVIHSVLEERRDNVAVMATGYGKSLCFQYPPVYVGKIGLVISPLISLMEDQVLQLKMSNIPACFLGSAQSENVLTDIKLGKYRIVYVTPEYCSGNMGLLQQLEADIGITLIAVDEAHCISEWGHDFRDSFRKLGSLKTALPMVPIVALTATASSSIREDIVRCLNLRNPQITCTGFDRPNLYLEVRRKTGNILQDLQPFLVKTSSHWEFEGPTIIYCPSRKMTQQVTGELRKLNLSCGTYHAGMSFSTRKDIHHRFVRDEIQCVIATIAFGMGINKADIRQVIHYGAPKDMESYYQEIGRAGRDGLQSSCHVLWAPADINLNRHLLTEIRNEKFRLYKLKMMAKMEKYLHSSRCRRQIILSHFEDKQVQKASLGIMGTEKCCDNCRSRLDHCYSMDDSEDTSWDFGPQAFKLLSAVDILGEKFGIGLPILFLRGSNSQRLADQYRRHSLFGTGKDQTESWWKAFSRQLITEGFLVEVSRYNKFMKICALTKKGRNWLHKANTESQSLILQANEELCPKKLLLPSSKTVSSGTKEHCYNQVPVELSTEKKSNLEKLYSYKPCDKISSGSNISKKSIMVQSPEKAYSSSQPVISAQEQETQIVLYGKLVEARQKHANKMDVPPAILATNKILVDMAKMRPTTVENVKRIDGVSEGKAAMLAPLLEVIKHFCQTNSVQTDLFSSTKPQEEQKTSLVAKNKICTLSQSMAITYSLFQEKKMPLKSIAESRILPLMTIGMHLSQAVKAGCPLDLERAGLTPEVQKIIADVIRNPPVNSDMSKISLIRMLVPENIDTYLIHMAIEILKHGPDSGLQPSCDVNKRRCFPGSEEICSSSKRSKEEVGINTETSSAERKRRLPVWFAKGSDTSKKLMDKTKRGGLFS
- assay_notes: ADP-Glo Kinase Assay
Classification by IC50 | ranges: LOW (below 0.03 µM), MID (0.03 µM to below 0.06 µM), HIGH (0.06 µM or more)

Sample answers from the record:
CCc1c(N2CCN(C(=O)c3ncnc(C)c3O)CC2)c(=O)n2nc(-c3cnc4nccn4c3)nc2n1CC(=O)Nc1ccc(C(F)(F)F)cc1Cl | MID
CCc1c(N2CCN(C(=O)c3nccc4nc[nH]c34)CC2)c(=O)n2nc(-c3ccc4c(c3)COC4(C)C)nc2n1CC(=O)Nc1ccc(C(F)(F)F)cc1Cl | MID
CCc1c(N2CCN(C(=O)c3ncnc(C)c3O)CC2)c(=O)n2nc(-c3ccc4nn(C)c(F)c4c3)nc2n1CC(=O)Nc1ccc(C(F)(F)F)cc1Cl | LOW
CCc1c(N2CCN(C(=O)c3ncnc(C)c3O)CC2)c(=O)n2nc(-c3ccc4c(c3)COC4)nc2n1CC(=O)Nc1ccc(SC(F)(F)F)cc1Cl | MID
CCc1c(N2CCN(C(=O)c3ncnc(C)c3O)CC2)c(=O)n2nc(-c3ccc4c(c3)C[C@H](OC)C4)nc2n1CC(=O)Nc1ccc(C(F)(F)F)cc1Cl | MID

stdin: Which bin, given its IC50, does `CCc1c(N2CCN(C(=O)c3ccccc3NS(=O)(=O)C3CC3)CC2)c(=O)n2nc(-c3cccc4c3OCCO4)nc2n1CC(=O)Nc1ccc(C(F)(F)F)cc1Cl` occupy?
stdout: HIGH

stdin: Which bin, given its IC50, does `CCc1c(N2CCN(C(=O)c3ncnc(C)c3O)CC2)c(=O)n2nc(C3=CCOCC3)nc2n1CC(=O)Nc1ccc(C(F)(F)F)n(C)c1=O` occupy?
stdout: HIGH

stdin: Which IC50 band matches `CCc1c(N2CCN(C(=O)c3ncnc(C)c3O)CC2)c(=O)n2nc(C3=CCOCC3)nc2n1CC(=O)NC12CC(CCC(F)(F)F)(C1)C2` ?
stdout: HIGH

stdin: # classify by IC50 band: `CCc1c(N2CCN(C(=O)c3ncnc(C)c3O)CC2)c(=O)n2nc(-c3ccc4nccnc4c3)nc2n1CC(=O)Nc1ccc(C(F)(F)F)cc1Cl`
stdout: LOW

stdin: Could you tell me which band `CCc1c(N2CCN(C(=O)c3ncnc(C)c3O)CC2)c(=O)n2nc(-c3cc(OC)c4nn(C)cc4c3)nc2n1CC(=O)Nc1ccc(C(F)(F)F)cc1Cl` belongs to?
stdout: MID

stdin: Entry `CCc1c(N2CCN(C(=O)c3ncnc(C)c3O)CC2)c(=O)n2nc(-c3cn4c(n3)COCC4)nc2n1CC(=O)Nc1ccc(C(F)(F)F)cc1Cl` belongs to which category?
stdout: HIGH

stdin: # bin lookup: classify `CCc1c(N2CCN(C(=O)c3ncnc(C)c3O)CC2)c(=O)n2nc(C3=CCOCC3)nc2n1CC(=O)NC12COC(C(F)(F)F)(C1)C2` by its IC50
stdout: HIGH

stdin: Category of `CCc1c(N2CCN(C(=O)c3ncnc(C)c3O)CC2)c(=O)n2nc(-c3ccc4nn(C)cc4c3C)nc2n1CC(=O)Nc1ccc(C(F)(F)F)cc1Cl` , please.
stdout: MID

stdin: The entry to classify is `CCc1c(N2CCN(C(=O)c3ncnc(C)c3O)CC2)c(=O)n2nc(-c3cc4ccnn4cc3C)nc2n1CC(=O)Nc1ccc(C(F)(F)F)cc1Cl` ; which class holds it?
stdout: LOW
